Target: human ALX receptor (Homo sapiens, UniProt P25090)
Sequence (P25090 whole entry): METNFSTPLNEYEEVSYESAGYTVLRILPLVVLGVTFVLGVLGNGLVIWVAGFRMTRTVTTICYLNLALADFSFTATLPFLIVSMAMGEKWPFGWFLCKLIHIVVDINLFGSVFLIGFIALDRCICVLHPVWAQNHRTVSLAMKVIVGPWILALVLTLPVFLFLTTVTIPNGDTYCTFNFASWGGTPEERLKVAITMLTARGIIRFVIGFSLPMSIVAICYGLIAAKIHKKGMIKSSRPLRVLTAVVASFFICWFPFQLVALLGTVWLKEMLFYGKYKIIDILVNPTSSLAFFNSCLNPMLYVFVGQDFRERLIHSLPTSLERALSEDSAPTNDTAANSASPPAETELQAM
Assay: Intracellular calcium measurements (FLIPR), agonistic activity in HEK293-hALXR-Gα16 cells
Conditions: Fluo-4 calcium FLIPR, normalized to WKYMVm 10 nM
Procedure: The ALX receptor and FPRL2 agonistic activities of the compounds of formula (I) are determined in accordance with the following experimental method. Intracellular Calcium Measurements: Cells expressing recombinant human ALX receptor and the G-protein Gα16 (HEK293-hALXR-Gα16) were grown to 80% confluency in Growing Medium (GM). […] Changes in fluorescence were monitored before and after the addition of test compounds at lex=488 nm and lem=540 nm. […]
endpoint name: pEC50
Please treat pEC50 as minus the base-10 logarithm of the molar concentration.

[
  {
    "compound": "Cc1ccc(CCNC(=O)C2C(C(=O)NCCCCN3CCCC3)C3C=CC2C32CC2)cc1 (stereo not shown)",
    "system name": "human ALX receptor (Homo sapiens, UniProt P25090)",
    "pEC50": 5.41
  },
  {
    "compound": "COc1ccc(CNC(=O)[C@H]2[C@H](C(=O)NCCCCN3CCCC3)[C@H]3C=C[C@@H]2C32CC2)cc1OC (racemic)",
    "system name": "human ALX receptor (Homo sapiens, UniProt P25090)",
    "pEC50": 5.04
  },
  {
    "compound": "O=C(NCCCCN1CCCC1)[C@H]1[C@H](C(=O)NCc2cc(F)cc(C(F)(F)F)c2)[C@@H]2C=C[C@H]1C21CC1 (racemic)",
    "system name": "human ALX receptor (Homo sapiens, UniProt P25090)",
    "pEC50": 5.04
  },
  {
    "compound": "O=C(NCCCCN1CCCC1)C1C(C(=O)NCc2ccc(Br)cc2)C2C=CC1C21CC1 (racemic)",
    "system name": "human ALX receptor (Homo sapiens, UniProt P25090)",
    "pEC50": 7.33
  },
  {
    "compound": "CC(C)(C)OC(=O)N1CCC(CNC(=O)[C@H]2[C@H](C(=O)Nc3ccc(Br)cc3)[C@@H]3C=C[C@H]2C32CC2)CC1 (racemic)",
    "system name": "human ALX receptor (Homo sapiens, UniProt P25090)",
    "pEC50": 6.69
  }
]

Incoming: Could you share which pEC50 value was measured for CC(=O)c1csc(CNC(=O)[C@H]2[C@H](C(=O)NCC3CCNCC3)[C@H]3C=C[C@@H]2C32CC2)n1 (racemic) ?
Outgoing: 6.42

Incoming: Could you share which pEC50 value was measured for O=C(NCCCCN1CC[C@@H](F)C1)[C@H]1[C@H](C(=O)Nc2ccc(Br)cc2)[C@@H]2C=C[C@H]1C21CC1 ?
Outgoing: 9.52

Incoming: Could you share which pEC50 value was measured for O=C(NCCCCO)[C@H]1[C@H](C(=O)Nc2ccc(Br)cc2)[C@@H]2C=C[C@H]1C21CC1 (racemic) ?
Outgoing: 8.02

Incoming: Could you share which pEC50 value was measured for O=C(NCCN1CCOCC1)[C@H]1[C@H](C(=O)Nc2ccc(Br)cc2)[C@@H]2C=C[C@H]1C21CC1 (racemic) ?
Outgoing: 7.01

Incoming: Could you share which pEC50 value was measured for O=C(NCCC(F)CN1CCCC1)[C@H]1[C@H](C(=O)Nc2ccc(Br)cc2)[C@@H]2C=C[C@H]1C21CC1 (stereo partly shown) ?
Outgoing: 8.30

Incoming: Could you share which pEC50 value was measured for CC(CCCNC(=O)[C@H]1[C@H](C(=O)Nc2ccc(Br)cc2)[C@@H]2C=C[C@H]1C21CC1)N1CCCC1 (stereo partly shown) ?
Outgoing: 8.74

Incoming: Could you share which pEC50 value was measured for NC(=O)CCNC(=O)[C@H]1[C@H](C(=O)Nc2ccc(Br)nc2)[C@@H]2C=C[C@H]1C21CC1 ?
Outgoing: 8.23

Incoming: Could you share which pEC50 value was measured for Cc1nc2cc(NC(=O)[C@H]3[C@H](C(=O)NCCCCN4CCCC4)[C@H]4C=C[C@@H]3C43CC3)ccc2s1 (racemic) ?
Outgoing: 6.24
